Molecular target: KIF15-N420 (Homo sapiens, UniProt Q9NS87)
Sequence (Q9NS87 1-420 limits assumed): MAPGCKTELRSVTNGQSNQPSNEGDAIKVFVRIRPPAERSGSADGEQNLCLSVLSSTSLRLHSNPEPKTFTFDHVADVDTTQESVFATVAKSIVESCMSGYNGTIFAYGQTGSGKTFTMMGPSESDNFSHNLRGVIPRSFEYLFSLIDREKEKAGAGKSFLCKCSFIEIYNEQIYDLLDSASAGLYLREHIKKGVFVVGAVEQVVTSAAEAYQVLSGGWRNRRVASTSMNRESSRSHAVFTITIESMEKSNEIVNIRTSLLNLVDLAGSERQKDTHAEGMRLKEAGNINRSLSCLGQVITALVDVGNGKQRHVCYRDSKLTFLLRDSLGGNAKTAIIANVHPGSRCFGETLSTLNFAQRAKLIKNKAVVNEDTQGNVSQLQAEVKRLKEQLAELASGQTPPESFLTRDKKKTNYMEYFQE
Property label: pIC50
Friendly reminder that pIC50 comes from taking -log10 of the concentration in mol/L.

Query :: Tell me the measured pIC50 of COC(=O)c1ccc2c(c1)N(C)S(=O)(=O)c1cnc(SC)nc1-2 [Munesib-1] , please.
Result :: 5.55

====

Target: KIF15-N700 (Homo sapiens)
Sequence (Q9NS87 1-700 limits assumed): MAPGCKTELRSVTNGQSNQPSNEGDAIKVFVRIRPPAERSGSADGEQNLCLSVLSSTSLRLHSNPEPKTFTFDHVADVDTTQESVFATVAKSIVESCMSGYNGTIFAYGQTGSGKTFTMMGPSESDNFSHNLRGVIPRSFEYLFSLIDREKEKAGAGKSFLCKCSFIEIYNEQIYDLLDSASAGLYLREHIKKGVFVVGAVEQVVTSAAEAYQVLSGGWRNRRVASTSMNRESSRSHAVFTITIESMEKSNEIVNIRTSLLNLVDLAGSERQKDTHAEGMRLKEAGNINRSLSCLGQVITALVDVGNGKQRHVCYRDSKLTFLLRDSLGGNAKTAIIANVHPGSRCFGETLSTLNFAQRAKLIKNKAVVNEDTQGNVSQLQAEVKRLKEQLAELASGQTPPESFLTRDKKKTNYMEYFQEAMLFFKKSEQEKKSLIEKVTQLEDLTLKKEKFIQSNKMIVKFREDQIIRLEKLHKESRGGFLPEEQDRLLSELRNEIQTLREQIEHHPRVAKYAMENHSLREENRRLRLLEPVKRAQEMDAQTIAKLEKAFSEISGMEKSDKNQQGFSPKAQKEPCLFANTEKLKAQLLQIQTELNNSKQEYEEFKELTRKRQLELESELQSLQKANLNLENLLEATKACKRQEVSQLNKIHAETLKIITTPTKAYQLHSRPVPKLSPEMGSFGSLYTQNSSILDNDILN
Property label: IC50 (nM)
Response body: numeric value in nM, unit text excluded.

Query :: Tell me the measured IC50 of COC(=O)c1ccc2c(c1)N(C)S(=O)(=O)c1cnc(SC)nc1-2 [Munesib-1] , please.
Result :: 400
